Measured values drawn from patent US9243281B2 for this set.

- Test system: hippocampal neurogenesis (Dentate Gyrus)
- Assay summary: in vivo neurogenesis assay (BrdU+ cells in dentate gyrus)
- Parameters: species or system mice
- Conditions: living mice; vehicle (DMSO) 7.3
- Description: The screen was simple in concept. With help from chemists in the Department of Biochemistry at UTSWMC, we selected 1,000 druglike chemicals from the 250,000 compounds in our high throughput screening center. The compounds were selected to preserve representative chemical diversity of the entire library. They were further selected to enhance the representation of chiral molecules, and to avoid untoward chemical properties such as reactive moieties. […]
Measured parameter: Neurogenesis # BrdU+ Cells (X10E06)/mm3 Dentate Gyrus

Solved cases below.
molecule="CN(C)CC(F)CN1c2ccccc2CCc2ccccc21 (centres unmarked) [S148, reference compound]" test_result="11.3 (X10E06)/mm3"
molecule="Nc1ccc[n+](CC(O)Cn2c3ccc(Br)cc3c3cc(Br)ccc32)c1 (centres unmarked)" test_result="8.4 (X10E06)/mm3"
molecule="OC(COc1ccccc1)Cn1c2c(c3cc(Br)ccc31)CNCC2 (centres unmarked)" test_result="10.8 (X10E06)/mm3"
molecule=N#Cc1ccc2c(c1)c1cc(Br)ccc1n2CC(=O)O test_result="10.1 (X10E06)/mm3"

As a next step, examine the molecule that follows.
Short answer on hippocampal neurogenesis (Dentate Gyrus) for OC(CNc1cccc2ccccc12)Cn1c(-c2ccccc2)cc2ccccc21 (centres unmarked) , Neurogenesis # BrdU+ Cells (X10E06)/mm3 Dentate Gyrus: 12.6 (X10E06)/mm3

----------
- Assay system: Human NAMPT (Homo sapiens, UniProt P43490)
- Construct: made in house; host or cells: E. coli
- Sequence (P43490 whole entry): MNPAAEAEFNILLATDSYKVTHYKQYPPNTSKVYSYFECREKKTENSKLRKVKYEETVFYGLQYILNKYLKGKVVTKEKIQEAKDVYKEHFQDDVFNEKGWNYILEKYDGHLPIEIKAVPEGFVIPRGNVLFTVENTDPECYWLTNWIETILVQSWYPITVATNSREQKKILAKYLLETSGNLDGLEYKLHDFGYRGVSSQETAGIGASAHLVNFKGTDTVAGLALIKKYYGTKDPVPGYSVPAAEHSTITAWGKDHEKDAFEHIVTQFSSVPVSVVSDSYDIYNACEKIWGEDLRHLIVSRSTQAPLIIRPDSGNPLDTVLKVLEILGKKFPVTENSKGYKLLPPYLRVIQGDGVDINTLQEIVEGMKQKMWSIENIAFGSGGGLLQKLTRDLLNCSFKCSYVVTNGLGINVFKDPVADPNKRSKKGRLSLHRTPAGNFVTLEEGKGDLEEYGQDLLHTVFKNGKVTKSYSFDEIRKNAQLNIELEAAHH
- Assay summary: in vitro NAMPT coupled-enzyme assay (NADH at OD340 nm)
- Assay type: biochemical
- Conditions: relative reaction rate normalized by the control reaction run prior to compound addition; vehicle 0.98
Label 1 when NAMPT activation >= 1; otherwise 0.

compound="FC(F)(COc1ccccc1)Cn1c2ccc(Br)cc2c2cc(Br)ccc21 [S56]" assay_system="Human NAMPT (Homo sapiens, UniProt P43490)" category_label=1

Tell me whether NAMPT activation is at least 1 here: Brc1ccc2c(c1)c1cc(Br)ccc1n2Cc1nnn[nH]1 [S233]
0

Tell me whether NAMPT activation is at least 1 here: Cc1cc2c(cn1)[nH]c1ccc(Br)cc12 [S226]
0

Tell me whether NAMPT activation is at least 1 here: COc1cccc(N2CC(Cn3c4ccc(Br)cc4c4cc(Br)ccc43)OC2=O)c1 (centres unmarked) [S12]
1

Tell me whether NAMPT activation is at least 1 here: COc1cccc(N(C)CC(F)Cn2c3ccc(Br)cc3c3cc(Br)ccc32)c1 (centres unmarked) [S11]
1

----------
- Assay system: p70 (NAMPT) (Homo sapiens, UniProt P43490)
- Construct: endogenous in cells; host or cells: H2122 lung cancer cells
- Sequence (P43490 whole entry): as above
- Assay summary: binding competition for photo-crosslinking of P7C3-S326 to p70 in H2122 cells
- Conditions: 0.3 μM P7C3-S326 plus 5 μM competitor, p70 band intensity, P7C3-S326 alone compared with plus competitor, vehicle 1.0
I'd be grateful if you could share measured Binding competition for these entries.
One number for each entry.

Solved cases below.
compound="COc1cccc(N(CC(O)Cn2c3ccc(Br)cc3c3cc(Br)ccc32)C(C)=O)c1 (stereo not drawn) [S9]" measured_parameter="Binding competition" test_result=2.0
compound="OC(COc1ccccn1)Cn1c2ccc(Br)cc2c2cc(Br)ccc21 (stereo not drawn) [S147]" measured_parameter="Binding competition" test_result=3.4

As a next step, examine the compound that follows.
Given item O=C(Cn1c2ccc(Br)cc2c2cc(Br)ccc21)NS(=O)(=O)c1ccccc1 [S230] , the value recorded as its Binding competition is 1.0

----------
- Assay system: p70 (NAMPT) (Homo sapiens)
- Construct: endogenous in cells; host or cells: H2122 lung cancer cells
- Assay summary: binding competition for photo-crosslinking of P7C3-S326 to p70 in H2122 cells
- Conditions: 0.3 μM P7C3-S326 plus 5 μM competitor, p70 band intensity, P7C3-S326 alone compared with plus competitor, vehicle 1.0
With a cut-off of 3, any Binding competition strictly below it is called YES; any Binding competition meeting it or above is called NO.

compound="COc1ccc([C@H](CN(C)C)C2(O)CCCCC2)cc1 [S124, Effexor, reference compound]" category_label=YES
compound="COc1cccc(SCC(O)Cn2c3ccc(Br)cc3c3cc(Br)ccc32)c1 (stereo not shown)" category_label=NO

Hello, I'm reviewing records and need to know if Binding competition of [O-][n+]1cccc2c1c1cc(Br)ccc1n2CC(O)COc1ccccc1 (stereo not shown) is below 3. Could you check?
NO

Hello, I'm reviewing records and need to know if Binding competition of CC(NC(C)(C)C)C(=O)c1cccc(Cl)c1 (stereo not shown) [S125, Wellbutrin, reference compound] is below 3. Could you check?
YES

Hello, I'm reviewing records and need to know if Binding competition of CN(C)CC(F)CN1c2ccccc2CCc2ccccc21 (stereo not shown) [S148, reference compound] is below 3. Could you check?
YES

Hello, I'm reviewing records and need to know if Binding competition of COc1cccc(NCC(O)Cn2c3ccc(C)cc3c3cc(C)ccc32)c1 (stereo not shown) is below 3. Could you check?
NO

Hello, I'm reviewing records and need to know if Binding competition of `COc1cccc(N(/C=C/Cn2c3ccc(Br)cc3c3cc(Br)ccc32)S(=O)(=O)C(F)(F)F)c1` is below 3. Could you check?
YES

Hello, I'm reviewing records and need to know if Binding competition of CC(=O)NCC(F)Cn1c2ccc(Br)cc2c2cc(Br)ccc21 (stereo not shown) is below 3. Could you check?
NO

Hello, I'm reviewing records and need to know if Binding competition of COc1cccc(NCC(O)Cn2c3ccccc3c3cc(Br)ccc32)c1 (stereo not shown) is below 3. Could you check?
NO

Hello, I'm reviewing records and need to know if Binding competition of `Cc1cc2c(cn1)[nH]c1ccc(Br)cc12` is below 3. Could you check?
YES

Hello, I'm reviewing records and need to know if Binding competition of `CN(C)C(=O)Cn1c2ccc(Br)cc2c2cc(Br)ccc21` is below 3. Could you check?
NO

Hello, I'm reviewing records and need to know if Binding competition of OC(CNc1ccccc1)Cn1c2ccc(C(F)(F)F)cc2c2cc(C(F)(F)F)ccc21 (stereo not shown) is below 3. Could you check?
YES

Hello, I'm reviewing records and need to know if Binding competition of OC(COc1ccccc1)Cn1c2ccccc2c2cc(Br)ccc21 (stereo not shown) is below 3. Could you check?
NO

----------
I'd be grateful if you could share measured Neurogenesis # BrdU+ Cells (X10E06)/mm3 Dentate Gyrus for these entries.
- Tested on: hippocampal neurogenesis (Dentate Gyrus)
- Assay summary: in vivo neurogenesis assay (BrdU+ cells in dentate gyrus)
- Parameters: species or system mice
- Conditions: living mice; vehicle (DMSO) 7.3

Solved cases below.
compound="OC(Cn1c2ccccc2c2ccccc21)Cn1c2ccc(Br)cc2c2cc(Br)ccc21 (stereo not drawn)" test_result="8.6 (X10E06)/mm3"
compound=CNC(=O)Cn1c2ccc(Br)cc2c2cc(Br)ccc21 test_result="9.9 (X10E06)/mm3"
compound="OC(CNc1ccccc1)Cn1c2ccc(Br)cc2c2cc(Br)ncc21 (stereo not drawn)" test_result="14.3 (X10E06)/mm3"
compound="CC(=O)NCCOCC(O)Cn1c2ccc(Br)cc2c2cc(Br)ccc21 (stereo not drawn)" test_result="11.7 (X10E06)/mm3"
compound="O=S(=O)(CC(F)Cn1c2ccc(Br)cc2c2cc(Br)ccc21)c1ccc(O)cc1 (stereo not drawn)" test_result="7.0 (X10E06)/mm3"
compound=COC(=O)NC(=O)Cn1c2ccc(Br)cc2c2cc(Br)ccc21 test_result="17.8 (X10E06)/mm3"

For every item below, please supply its Neurogenesis # BrdU+ Cells (X10E06)/mm3 Dentate Gyrus.
1. COc1cccc(N(C)CC(F)Cn2c3ccc(Br)cc3c3cc(Br)ccc32)c1 (stereo not drawn)
2. COc1cccc(SCC(O)Cn2c3ccc(Br)cc3c3cc(Br)ccc32)c1 (stereo not drawn)
3. CN(C)c1nc(O)c2[nH]c3ccccc3c2n1
4. O=c1ccccn1CC(O)Cn1c2ccc(Br)cc2c2cc(Br)ccc21 (stereo not drawn)

["12.8 (X10E06)/mm3", "12.0 (X10E06)/mm3", "16.2 (X10E06)/mm3", "12.2 (X10E06)/mm3"]

For every item below, please supply its Neurogenesis # BrdU+ Cells (X10E06)/mm3 Dentate Gyrus.
1. CC(C)(C)OC(=O)CCOCCOCCOCCOc1cccc(NCC(O)Cn2c3ccc(Br)cc3c3cc(Br)ccc32)c1 (stereo not drawn)
2. Cc1cc2c(cn1)[nH]c1ccc(Br)cc12

1: 10.2 (X10E06)/mm3; 2: 12.8 (X10E06)/mm3

For every item below, please supply its Neurogenesis # BrdU+ Cells (X10E06)/mm3 Dentate Gyrus.
1. COc1cccc(NCC(=O)Cn2c3ccc(Br)cc3c3cc(Br)ccc32)c1
2. O=S(=O)(C[C@H](O)Cn1c2ccc(Br)cc2c2cc(Br)ccc21)c1ccccc1
3. O=C(O)c1cc2c(cn1)[nH]c1ccc(Br)cc12

9.2 (X10E06)/mm3
13.2 (X10E06)/mm3
14.8 (X10E06)/mm3
